The reader will find reported %Inh values listed item by item below.
System: PLK2
Condition notes: concentration: 1 μM, replicates: in singlicate; n = 1;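 note: KINOMEscan kinase panel screen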
Reported endpoint: %Inh (%)

> print(dat)
                               query.smiles  value.measured
1  CSc1nn2c(=O)cc(N3CCOCC3)nc2n1Cc1cccc(Cl)c1Cl               0
2  Fc1cccc(COc2ccc(Nc3ncnc4cc[nH]c34)cc2Cl)c1              23
3  Cn1cc(-c2ccc3c(c2)CCN3C(=O)Cc2cccc(C(F)(F)F)c2)c2c(N)ncnc21               0
4        CC(=O)Nc1n[nH]c2ncc(-c3ccccc3)cc12              27
5   O=C(Nc1ccccc1)Nc1ccc(Oc2ccc3nccn3n2)cc1               0
6    Clc1cccc(-c2nc(Nc3ccncc3)c3ccccc3n2)c1               0
7  CCc1nc(-c2cccc(C)c2)c(-c2ccnc(NC(=O)c3ccccc3)c2)s1               5
8  Fc1cccc(COc2ccc(Nc3ncnc4nn5ccccc5c34)cc2Cl)c1               0
9  FC(F)(F)c1cc(Nc2nccc(-c3c(-c4ccc(Cl)cc4)nn4ncccc34)n2)ccc1Cl               0

----------
Test system: CIT
Condition notes: concentration: 1 μM, replicates: in singlicate; n = 1
Doc: threshold 30% (exclusive). Items with %Inh beneath it return 1; others return -1.

> print(dat)
                                    compound  tested.on  assigned.category
 1  CCCc1ccc(S(=O)(=O)NC2CCN(c3ccnc(Nc4ccc(OC)cc4)n3)C2)cc1 (centres unmarked) [GSK1379737]        CIT                 -1
 2  Cl.Fc1ccccc1COc1ccc(Nc2ncnc3ccc(-c4nnc(C(F)(F)F)o4)cc23)cc1Cl [GW424170]        CIT                  1
 3  Cl.O=S(=O)(c1cccc(F)c1)c1ccc(Nc2ncnc3cc(Br)sc23)cc1Cl [GSK306886]        CIT                  1
 4  NC(=O)c1sc(-n2cnc3ccccc32)cc1OCc1ccccc1F [GSK1024306]        CIT                 -1
 5  Fc1cccc(COc2ccc(Nc3ncnc4sc(-c5ccc[nH]5)cc34)cc2Cl)c1 [GW707818]        CIT                  1
 6  Fc1ccc(Nc2nccc(-c3c(-c4ccc(Cl)cc4)nn4ncccc34)n2)cc1F [GW829058]        CIT                  1
 7  CCc1nc(-c2cccc(C)c2)c(-c2ccnc(NC(=O)c3ccccc3)c2)s1        CIT                 -1
 8  c1ccc(-c2ccc3c(-c4ccnc(Nc5ccc6c(c5)OCCO6)n4)cnn3n2)cc1 [GW818941]        CIT                  1
 9  FC(F)(F)c1ccc(-c2nn3ncccc3c2-c2ccnc(Nc3cccc(C(F)(F)F)c3)n2)cc1 [GW828205]        CIT                  1
10  COC(=O)c1cccc(NC(=O)NCCNc2ccnc(Nc3ccc(F)cc3)n2)c1 [GSK1379883]        CIT                 -1
11  COc1cc2c(Nc3cccc(NC(=O)c4ccccc4)c3)ncnc2cc1OCCCN1CCOCC1 [GSK223810]        CIT                  1
12  COc1ccc(Nc2nccc(N3CCC(NC(=O)c4cccc(NC(C)=O)c4)C3)n2)cc1 (centres unmarked) [GSK1379732]        CIT                 -1
13  Cn1ccc2ncnc(Oc3ccc(NC(=O)Nc4cccnc4)c(Cl)c3)c21        CIT                  1
14  CC(C)(C)OC(=O)NC1CCCN(c2cc(-c3ccc4c(N)n[nH]c4c3)nc(N)n2)C1 (centres unmarked) [GSK2286096]        CIT                  1
15  Cc1cc(N2CCC(NS(=O)(=O)c3ccc(F)cc3)CC2)nc(Nc2cccc(C#N)c2)n1.O=C(O)C(F)(F)F [GSK1653537]        CIT                  1
16  Cc1ccc(NC(=O)c2cccc(C#N)c2)cc1-c1ccc(C(=O)Nc2ccncc2)cc1 [GSK1398463]        CIT                 -1
17  N#Cc1ccc(Oc2ccc(Nc3ncnc4cc[nH]c34)cc2Cl)cc1        CIT                  1
18  CS(=O)(=O)CCNCc1nc(-c2ccc3ncnc(Nc4ccc(OCc5cccc(F)c5)c(Cl)c4)c3c2)cs1.Cl [GW583340]        CIT                  1
19  CNc1nccc(-c2c(-c3ccc(F)cc3)ncn2C2CCN(C)CC2)n1 [SB-222903]        CIT                 -1
20  Fc1ccc(-c2ncn(CCCNCc3ccccc3)c2-c2ccncc2)cc1        CIT                  1
21  Nc1nc(-c2ccc3c(N)n[nH]c3c2)cc(N2CCC[C@@H](C(=O)Nc3ccccc3)C2)n1.O=C(O)C(F)(F)F.O=C(O)C(F)(F)F [GSK2288359]        CIT                  1
22  Nc1n[nH]c2nnc(-c3ccccc3)cc12 [SB-517389]        CIT                  1
23  Cc1ccc(C)c(NC(=O)NCCNc2ccnc(Nc3ccc(F)cc3)n2)c1 [GSK1379878]        CIT                  1
24  O=C(Nc1n[nH]c2nc(-c3ccco3)c(Br)cc12)c1ccc(CN2CCCC2)cc1.O=C(O)[C@H](O)[C@@H](O)C(=O)O [SB-742352]        CIT                  1
25  COC(=O)c1c(-c2ccccc2)c2cc(Cl)ccc2c(=O)n1Cc1ccc(S(C)(=O)=O)cc1        CIT                  1
26  Nc1nccc2scc(-c3ccc4c(c3)CCN4C(=O)Cc3cc(F)ccc3F)c12 [GSK2587663]        CIT                  1
27  Cl.c1ccc(Cn2ccc3cc(Nc4ncnc5ccccc45)ccc32)cc1 [GW275568]        CIT                  1
28  O=C(CCO)NCCn1ccc2ncnc(Nc3ccc(Oc4cccc(C(F)(F)F)c4)c(Cl)c3)c21        CIT                  1
29   O=C(Nc1ccccc1)Nc1ccc(Oc2ccc3nccn3n2)cc1        CIT                  1
30  OCCOCCn1ccc2ncnc(Nc3ccc(Oc4cccc(Cl)c4)c(Cl)c3)c21        CIT                  1
31  O=C(Nc1ccccc1F)NC1CCN(c2ccnc(Nc3ccc(F)cc3)n2)C1 (centres unmarked) [GSK1379722]        CIT                  1
32  Nc1nc(-c2ccc3c(N)n[nH]c3c2)cc(N2CCCCC2)n1 [GSK2228768]        CIT                  1
33  Clc1cccc(-c2nc(Nc3ccncc3)c3ccccc3n2)c1 [GW873004]        CIT                 -1
34  C[C@@H]1CCN(C(=O)CO)C[C@@H]1N(C)c1ncnc2[nH]ccc12        CIT                  1
35  O=C(c1ccc(-c2cc(-c3c[nH]nc3-c3ccccn3)ccn2)cc1)N1CCCC1 [GW792479]        CIT                  1
